The reported measurements were obtained from patent US20250152746A1.

- System: PCSK9 gene
- Experiment Summary: PCSK9 gRNA/SpCas9 editing in primary human hepatocytes (Tables 2, 4)
- Assay type: cell-based
- Test Settings: 2500 ng/RNA/mL; SpCas9 mRNA MS002 1:1 by weight
m = 2'-O-methyl; r = 2'-OH (RNA)
Listed molecules paired with reported Human Primary Hepatocyte Editing % 2500
Answer in %, number only, no unit symbol.

>>> endpoint_value("GA237: PCSK9 gRNA; protospacer CAACGCCGCCTGCCAGCGCC (SEQ ID NO: 230) (nucleic acid, sugars from the 5' end m3 r94 m3, linkages s3 o93 s3 (s phosphorothioate, o phosphodiester), T or U not given here) guide: CAACGCCGCCUGCCAGCGCCGUUUUAGAGCUAGAAAUAGCAAGUUAAAAUAAGGCUAGUCCGUUAUCAACUUGAAAAAGUGGCACCGAGUCGGUGCUUUU")
36.78
>>> endpoint_value("GA247: PCSK9 gRNA; protospacer CCTCGCCAGGCGCTGGCAGG (SEQ ID NO: 240) (nucleic acid, sugars from the 5' end m3 r94 m3, linkages s3 o93 s3 (s phosphorothioate, o phosphodiester), T or U not given here) guide: CCUCGCCAGGCGCUGGCAGGGUUUUAGAGCUAGAAAUAGCAAGUUAAAAUAAGGCUAGUCCGUUAUCAACUUGAAAAAGUGGCACCGAGUCGGUGCUUUU")
6.76

# ---- query molecule ----
Exercise: Entry GA230: PCSK9 gRNA; protospacer AGTAGAGGCAGGCATCGTCC (SEQ ID NO: 224) (nucleic acid, sugars from the 5' end m3 r94 m3, linkages s3 o93 s3 (s phosphorothioate, o phosphodiester), T or U not given here) guide: AGUAGAGGCAGGCAUCGUCCGUUUUAGAGCUAGAAAUAGCAAGUUAAAAUAAGGCUAGUCCGUUAUCAACUUGAAAAAGUGGCACCGAGUCGGUGCUUUU : reported Human Primary Hepatocyte Editing % 2500 = ?
Key: 29.31
